Read-out: Vascular cell adhesion molecule 1 (VCAM1), VCAM1 (gene 7412)
protocol_notes: BSK_hDFCGF_VCAM1: BioMAP Diversity Plus: hDFCGF Assay for Vascular cell adhesion molecule 1 (VCAM1) Biomarker Activity (AID 2283065);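 as to AC50: VCAM-1 protein level quantified by ELISA after 24 h chemical exposure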
condition_description: primary human foreskin fibroblasts; actives raise or lower the signal
Calls of active or inactive are those of the source. The calls were made as follows: active = hit-call score of the fitted dose curve at least 0.9, where 1 is the maximum; inactive = score below 0.9.
measurement_type: AC50

Take a look at these entries with their results.
O=C(Nc1ccccc1)c1ccccc1I ... inactive
O=C(Oc1ccc(Br)cc1)N1CCN2CCC1CC2 ... inactive
CC(C)(O)c1cnn2c(-c3ccc(F)c(-c4c(F)cccc4C#N)c3)cnc2n1 ... inactive
CCC(C)c1ccc(O)cc1 (configuration not stated) ... inactive
Oc1ccc2ccc3cccc4ccc1c2c34 ... 8.34 µM (active)
CO[C@@H]1[C@H](OC(=O)NC(=O)CCl)CC[C@]2(CO2)[C@H]1[C@@]1(C)O[C@@H]1CC=C(C)C ... 4.58 µM (active)
CN(C)[C@@H]1C(=O)C(C(N)=O)=C(O)[C@@]2(O)C(=O)C3=C(O)c4c(O)cccc4[C@@](C)(O)[C@H]3C[C@@H]12 ... inactive
Cc1ccc(N)cc1 ... inactive

input: Reported AC50, compound `[Cl-].[Cl-].[Hg+2]` : ____
output: 7.96 µM (active)

input: Reported AC50, compound `CC(C)(C)OOC(=O)c1ccccc1` : ____
output: 32.9 µM (active)

input: Reported AC50, compound `CCCSC(=O)N(CCC)CCC` : ____
output: inactive

input: Reported AC50, compound `Cc1cc(N=Nc2ccccc2C)ccc1N` : ____
output: 23.5 µM (active)

* * *

target_desc: Bile acid receptor (Homo sapiens) (UniProt Q96RI1)
Sequence (Q96RI1 whole entry, looked up): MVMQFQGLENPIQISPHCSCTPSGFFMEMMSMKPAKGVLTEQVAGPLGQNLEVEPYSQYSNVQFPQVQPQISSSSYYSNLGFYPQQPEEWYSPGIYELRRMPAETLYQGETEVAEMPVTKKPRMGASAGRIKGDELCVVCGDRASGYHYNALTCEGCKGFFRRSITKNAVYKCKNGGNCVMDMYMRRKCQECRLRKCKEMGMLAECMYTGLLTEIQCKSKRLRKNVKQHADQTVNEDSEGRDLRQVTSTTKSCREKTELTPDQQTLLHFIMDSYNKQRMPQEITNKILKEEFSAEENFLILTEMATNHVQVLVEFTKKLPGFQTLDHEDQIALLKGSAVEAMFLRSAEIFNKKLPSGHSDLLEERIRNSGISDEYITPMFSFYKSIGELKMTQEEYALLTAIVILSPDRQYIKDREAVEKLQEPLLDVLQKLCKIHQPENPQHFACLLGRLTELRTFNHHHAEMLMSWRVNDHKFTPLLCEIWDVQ
protocol_notes: OT_FXR_FXRSRC1_1440: Odyssey Thera (OT) 24-hour HEK293T Protein-Complementation Assay for Farnesoid X receptor/SRC-1 Co-activator (AID 2283384)
Method: OT_FXR_FXRSRC1_1440 is a cell-based assay that uses HEK293T, a human kidney cell line, with measurements taken at 24 hours after chemical dosing in a 384-well plate.OT_FXR_FXRSRC1_1440 is one of one assay component(s) measured or calculated from the OT_FXR_FXRSRC1_1440 assay. […] This assay endpoint, OT_FXR_FXRSRC1_1440, was analyzed in the positive analysis fitting direction relative to DMSO as the negative control and baseline of activity. […]
Records with an inconclusive call do not appear. Activity calls are given as the source filed them. The calls were made as follows: active = hit-call score of the fitted dose curve at least 0.9, where 1 is the maximum; inconclusive = response in the unintended direction; inactive = score below 0.9.
measurement_type: AC50

Take a look at these entries with their results.
CN(C)[C@@H]1C(=O)C(C(N)=O)=C(O)[C@@]2(O)C(=O)C3=C(O)c4c(O)cccc4[C@@](C)(O)[C@H]3C[C@@H]12 ... inactive
CCC(C)c1ccc(O)cc1 (stereo not drawn) ... inactive
CC(C)N(Cc1ccccc1)C(=O)C(C)(C)C ... inactive
CCCCCCCCOC(=O)c1ccc(C(=O)OCCCCCCCC)c(C(=O)OCCCCCCCC)c1 ... inactive
OCCOCCO ... inactive
CCC[CH2][Sn]([Cl])([CH2]CCC)[CH2]CCC ... 82 µM (active)
CN(C)C(=O)Nc1ccc(Cl)cc1 ... 66.9 µM (active)
CN(C)c1ccc(C(=O)c2ccc(N(C)C)cc2)cc1 ... 0.699 µM (active)

input: Reported AC50, molecule `O=P(OCCCl)(OCCCl)OCCCl` : ____
output: inactive

input: Reported AC50, molecule `Nc1ccc(N=Nc2ccccc2)cc1` : ____
output: 12.2 µM (active)

input: Reported AC50, molecule `CC(C)(O)c1cnn2c(-c3ccc(F)c(-c4c(F)cccc4C#N)c3)cnc2n1` : ____
output: 64.9 µM (active)

input: Reported AC50, molecule `CC(C)COC(=O)c1ccccc1C(=O)OCC(C)C` : ____
output: inactive

* * *

Read-out: Epidermal growth factor receptor (EGFR), EGFR (gene 1956)
protocol_notes: BSK_hDFCGF_EGFR: BioMAP Diversity Plus: hDFCGF Assay for Epidermal growth factor receptor (EGFR) Biomarker Activity (AID 2283057)
condition_description: primary human foreskin fibroblasts; actives raise or lower the signal
Activity calls are given as the source filed them. The calls were made as follows: active = hit-call score of the fitted dose curve at least 0.9, where 1 is the maximum; inactive = score below 0.9.
Reply using exactly one outcome from Y (active), N (inactive)

input: Which result was noted for this compound in the test: `CCCSC(=O)N(CCC)CCC`
output: N

input: Which result was noted for this compound in the test: `O=[N+]([O-])c1ccc(Oc2ccc(Cl)cc2Cl)cc1`
output: N

input: Which result was noted for this compound in the test: `CO[C@@H]1[C@H](OC(=O)NC(=O)CCl)CC[C@]2(CO2)[C@H]1[C@@]1(C)O[C@@H]1CC=C(C)C`
output: Y

input: Which result was noted for this compound in the test: `OCCCBr`
output: N

input: Which result was noted for this compound in the test: `OCCOCCO`
output: N

input: Which result was noted for this compound in the test: `O=[N+]([O-])C(Br)(CO)CO`
output: Y

input: Which result was noted for this compound in the test: `Clc1ccc(C(c2ccc(Cl)cc2)C(Cl)Cl)cc1`
output: N

input: Which result was noted for this compound in the test: `CCCCCOC(=O)c1ccccc1C(=O)OCCCCC`
output: N

input: Which result was noted for this compound in the test: `C[C@]12C=CC3=C4CCC(=O)C=C4CC[C@H]3[C@@H]1CC[C@@H]2O`
output: N

input: Which result was noted for this compound in the test: `CCCCCCCCOC(=O)c1ccc(C(=O)OCCCCCCCC)c(C(=O)OCCCCCCCC)c1`
output: N

input: Which result was noted for this compound in the test: `Cc1ccc([N+](=O)[O-])cc1`
output: N

input: Which result was noted for this compound in the test: `CCC12COCN1COC2`
output: N

input: Which result was noted for this compound in the test: `O=C(N[C@H](c1ccccc1)[C@@H]1CN2CCC1CC2)c1c(Cl)ccc(C(F)(F)F)c1Cl`
output: N

input: Which result was noted for this compound in the test: `CNC(=O)Oc1cccc2c1OC(C)(C)C2`
output: N

input: Which result was noted for this compound in the test: `Brc1ccc(Oc2ccccc2)cc1`
output: N

input: Which result was noted for this compound in the test: `CCCCOC(=O)c1ccccc1C(=O)OCc1ccccc1`
output: N

input: Which result was noted for this compound in the test: `O=Cc1ccco1`
output: N

input: Which result was noted for this compound in the test: `C1=Cc2cccc3cccc1c23`
output: N

input: Which result was noted for this compound in the test: `CC(C)(C)OOC(=O)c1ccccc1`
output: N

input: Which result was noted for this compound in the test: `CCN(CC)N=O`
output: N

input: Which result was noted for this compound in the test: `Cc1cc(N=Nc2ccccc2C)ccc1N`
output: N

input: Which result was noted for this compound in the test: `Oc1ccc2ccc3cccc4ccc1c2c34`
output: N

input: Which result was noted for this compound in the test: `Nc1ccc([N+](=O)[O-])cc1`
output: N

input: Which result was noted for this compound in the test: C[N+](C)(C)CC1CO1 (configuration not stated)
output: N

input: Which result was noted for this compound in the test: `CN(C)c1ccccc1`
output: N

input: Which result was noted for this compound in the test: `[Cl-].[Cl-].[Hg+2]`
output: N

input: Which result was noted for this compound in the test: `Clc1ccccc1Cl`
output: N

input: Which result was noted for this compound in the test: `Nc1ccc(N=Nc2ccccc2)cc1`
output: N

input: Which result was noted for this compound in the test: `c1ccc(N=Nc2ccccc2)cc1`
output: N

input: Which result was noted for this compound in the test: `Cc1cccc(N)c1N`
output: N

input: Which result was noted for this compound in the test: `CS(=O)(=O)NC(=O)c1cc(Oc2ccc(C(F)(F)F)cc2Cl)ccc1[N+](=O)[O-]`
output: N

input: Which result was noted for this compound in the test: `Cc1ccc(N)cc1`
output: N

input: Which result was noted for this compound in the test: CCCCC(CC)COC(=O)c1ccc(C(=O)OCC(CC)CCCC)c(C(=O)OCC(CC)CCCC)c1 (configuration not stated)
output: N

input: Which result was noted for this compound in the test: `Clc1ccc(Cl)c(Cl)c1`
output: N

input: Which result was noted for this compound in the test: `CCN(CC)CCO`
output: N

input: Which result was noted for this compound in the test: `CCC[CH2][Sn]([Cl])([CH2]CCC)[CH2]CCC`
output: N

input: Which result was noted for this compound in the test: `c1ccc(NNc2ccccc2)cc1`
output: N

input: Which result was noted for this compound in the test: `c1ccc2c(c1)oc1ccccc12`
output: N

input: Which result was noted for this compound in the test: `CN(C)C(=O)Nc1ccc(Cl)cc1`
output: N

input: Which result was noted for this compound in the test: `O=P(OCCCl)(OCCCl)OCCCl`
output: N

input: Which result was noted for this compound in the test: CCC(C)c1ccc(O)cc1 (configuration not stated)
output: N

input: Which result was noted for this compound in the test: `C=CCc1ccc2c(c1)OCO2`
output: N

input: Which result was noted for this compound in the test: `CN(C)[C@@H]1C(=O)C(C(N)=O)=C(O)[C@@]2(O)C(=O)C3=C(O)c4c(O)cccc4[C@@](C)(O)[C@H]3C[C@@H]12`
output: N

input: Which result was noted for this compound in the test: c1ccc(C2CO2)cc1 (configuration not stated)
output: N

input: Which result was noted for this compound in the test: `Nc1cc(Cl)cc(C(=O)O)c1Cl`
output: N

input: Which result was noted for this compound in the test: `CC(C)N(Cc1ccccc1)C(=O)C(C)(C)C`
output: N

input: Which result was noted for this compound in the test: `OCCCl`
output: N

input: Which result was noted for this compound in the test: CCOc1cccc(C2(N3CCN(c4ccccc4)CC3)CCC(C)CC2)c1 (configuration not stated)
output: N

input: Which result was noted for this compound in the test: `Cc1ccc(N)c(N)c1`
output: N

input: Which result was noted for this compound in the test: CCCCCCCCCCCCCN1CC(C)OC(C)C1 (configuration not stated)
output: N

input: Which result was noted for this compound in the test: `COC(=O)c1ccccc1N`
output: N

input: Which result was noted for this compound in the test: `Nc1ccc(Oc2ccc(N)cc2)cc1`
output: N
